All values here come from ChEMBL document CHEMBL4118177.

- System: Escherichia coli
- Assay: Antibacterial activity against Escherichia coli ATCC 25922 at 62.5 uM after 24 hrs
- Type: functional, organism-based
Active and inactive are the calls of the source. No cut-off for these calls is given here.
Possible outcomes: Yes = active, No = inactive

[[record]]
record_smiles = "CCC[C@H]1OC(=O)/C=C\\C=C\\[C@H](O)[C@@H](O)[C@@H]1[C@H](C)COC(=O)c1ccc(O)cc1"
study_target = "Escherichia coli"
cat = "No"

[[record]]
record_smiles = "CCC[C@@H]1C[C@H](O)[C@@H](OC)/C=C/C=C\\C(=O)O1"
study_target = "Escherichia coli"
cat = "No"

[[record]]
record_smiles = "O=C(O)c1cn(C2CC2)c2cc(N3CCNCC3)c(F)cc2c1=O"
study_target = "Escherichia coli"
cat = "Yes"

[[record]]
record_smiles = "CCC/C=C/[C@@H]1OC(=O)c2cc(O)cc(O)c2[C@@H]1O"
study_target = "Escherichia coli"
cat = "No"

[[record]]
record_smiles = "CCC[C@@H]1C[C@H](O)[C@@H](O)/C=C/C=C\\C(=O)O1"
study_target = "Escherichia coli"
cat = "No"

